assay: Oral bioavailability in Han Wistar rat at 10 umol/kg; assay type: ADME, organism-based; details: in vivo
readout label: bioavailability (%)
Dear colleague, please return just the value in %, with no unit written.

Which bioavailability is reported for this compound? `Cn1nccc1CCOc1ccc(C2CCN(c3ccc4nnc(C(F)(F)F)n4n3)CC2)cc1` 43

* * *

assay: Intrinsic clearance in human hepatocytes measured per 10^6 cells
Exercise: state measured hepatocyte CLint for each of the molecules provided.
Report the value in µL/min/1e6 cells with no unit label.

I would be grateful if you could share the reported hepatocyte CLint for `Cn1nccc1CCOc1ccc(C2CCN(c3ccc4nnc(C(F)(F)F)n4n3)CC2)cc1` . 12

hepatocyte CLint for `CC(=O)N1CCN(CCOc2ccc(C3CCN(c4ccc5nnc(C(F)(F)F)n5n4)CC3)cc2)CC1` ? 12

Item `Fc1cccc(CN2CCN(c3ccc4nnc(C(F)(F)F)n4n3)CC2)c1F` has what recorded hepatocyte CLint? 22

Reported hepatocyte CLint, molecule `Fc1ccc(CN2CCN(c3ccc4nnc(C(F)(F)F)n4n3)CC2)cc1` : ____ 52

Sample `Fc1ccc(CN2CCN(C3=Nn4c(nnc4C(F)(F)F)CC3)CC2)cc1` — what was its hepatocyte CLint? 3.7
